target: Sodium-dependent dopamine transporter (Homo sapiens, UniProt Q01959); test: Radioligand Binding Assay: Compounds were dissolved in 100% DMSO at a concentration 100 times the desired highest assay concentration, serially diluted 1:3 in 100% DMSO, and 0.4 ul/well of each solution was dispensed to a Nunc polypropylene, round bottom, 384-well plate. […] 20 ul/well of a 2x membrane preparation (12.5 ug/ml in 30 mM sodium phosphate buffer, pH 7.9 at 4 C.) and 20 ul/well of a 2x radioligand solution (250 pM [125I]RTI-55 in 30 mM sodium phosphate buffer, pH 7.9 at 4 C.) were added to the well and the reaction incubated for 1 hour at room temperature. The contents of the assay plate were then transferred to a Millipore MultiscreenHTS GF/B filter plate which was pretreated with 0.5% PEI for at least one hour. The plate was vacuum-filtered and washed with 7 washes of 100 ul/well 50 mM Tris-Cl, pH 7.5, 120 mM NaCl, 5 mM KCl chilled to 4 C.
Sequence (Q01959 whole entry): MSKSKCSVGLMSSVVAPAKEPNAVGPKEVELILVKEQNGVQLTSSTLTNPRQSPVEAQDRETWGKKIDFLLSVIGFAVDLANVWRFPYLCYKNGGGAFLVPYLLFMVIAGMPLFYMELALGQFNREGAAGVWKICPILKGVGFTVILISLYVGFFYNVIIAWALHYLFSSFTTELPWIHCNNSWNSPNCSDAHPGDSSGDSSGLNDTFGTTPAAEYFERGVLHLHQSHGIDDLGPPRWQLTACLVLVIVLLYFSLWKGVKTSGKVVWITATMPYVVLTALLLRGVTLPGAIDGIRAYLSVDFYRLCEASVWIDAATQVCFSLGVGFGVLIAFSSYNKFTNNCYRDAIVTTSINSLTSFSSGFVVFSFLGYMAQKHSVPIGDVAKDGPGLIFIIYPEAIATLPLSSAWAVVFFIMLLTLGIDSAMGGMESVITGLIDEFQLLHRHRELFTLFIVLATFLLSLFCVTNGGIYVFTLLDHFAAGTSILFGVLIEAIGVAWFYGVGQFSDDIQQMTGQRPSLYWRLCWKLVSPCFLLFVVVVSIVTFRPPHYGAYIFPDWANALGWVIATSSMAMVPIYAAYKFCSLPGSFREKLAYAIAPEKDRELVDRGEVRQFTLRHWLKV
pIC50: −log10 of the molar value.
parameter.measured: pIC50

• O=c1[nH]c2ccc(-c3ccc4c(c3)CN3CCC4(c4ccc(Cl)c(Cl)c4)CC3)cc2o1 = 7.59
